Catalogue of Sephacryl (mL), elution peak position readings, one per entry.
PROTOCOL DESCRIPTION: Subunit association by FPLC on Sephacryl S-100HR
Format: physicochemical
ASSAY SETUP: tetramer 44 to 47 mL, dimer 51 to 54 mL, monomer 63 to 66 mL

MOLECULE	Sephacryl (mL), elution peak position
TM2 V113R: TM2 in which the 113th valine was replaced with arginine (protein) MSDVQSSLTGTWYNELNSKMELTANKDGTLTGKYLSKVGDVYVPYPLSGRYNLQPPAGQGVALGWAVSWENSKIHSATTWSGQFFSESSPVILTQWLLSSSTARGDVWESTLRGNDSFTKTAPTEQQIAHAQLHCRAPRLK	46.49
TM2 S36A: TM2 in which the 36th serine was replaced with alanine; SEQ ID NO: 6 (protein, Synthetic TM2 S36A) MSDVQSSLTGTWYNELNSKMELTANKDGTLTGKYLAKVGDVYVPYPLSGRYNLQPPAGQGVALGWAVSWENSKIHSATTWSGQFFSESSPVILTQWLLSSSTARGDVWESTLVGNDSFTKTAPTEQQIAHAQLHCRAPRLK	46.17
TM2 N14A: TM2 in which the 14th asparagine was replaced with alanine (protein) MSDVQSSLTGTWYAELNSKMELTANKDGTLTGKYLSKVGDVYVPYPLSGRYNLQPPAGQGVALGWAVSWENSKIHSATTWSGQFFSESSPVILTQWLLSSSTARGDVWESTLVGNDSFTKTAPTEQQIAHAQLHCRAPRLK	46.24
TM2 S36A-T78A-D116A: TM2 with 36th serine, 78th threonine and 116th aspartic acid replaced with alanine; SEQ ID NO: 8 (protein, Synthetic TM2 S36A-T78A-D116A) MSDVQSSLTGTWYNELNSKMELTANKDGTLTGKYLAKVGDVYVPYPLSGRYNLQPPAGQGVALGWAVSWENSKIHSAATWSGQFFSESSPVILTQWLLSSSTARGDVWESTLVGNASFTKTAPTEQQIAHAQLHCRAPRLK	51.06
